Values from ChEMBL document CHEMBL5705895

Molecular target: Transient receptor potential cation channel subfamily A member 1 (Rattus norvegicus, UniProt Q6RI86)
Sequence (Q6RI86 whole entry): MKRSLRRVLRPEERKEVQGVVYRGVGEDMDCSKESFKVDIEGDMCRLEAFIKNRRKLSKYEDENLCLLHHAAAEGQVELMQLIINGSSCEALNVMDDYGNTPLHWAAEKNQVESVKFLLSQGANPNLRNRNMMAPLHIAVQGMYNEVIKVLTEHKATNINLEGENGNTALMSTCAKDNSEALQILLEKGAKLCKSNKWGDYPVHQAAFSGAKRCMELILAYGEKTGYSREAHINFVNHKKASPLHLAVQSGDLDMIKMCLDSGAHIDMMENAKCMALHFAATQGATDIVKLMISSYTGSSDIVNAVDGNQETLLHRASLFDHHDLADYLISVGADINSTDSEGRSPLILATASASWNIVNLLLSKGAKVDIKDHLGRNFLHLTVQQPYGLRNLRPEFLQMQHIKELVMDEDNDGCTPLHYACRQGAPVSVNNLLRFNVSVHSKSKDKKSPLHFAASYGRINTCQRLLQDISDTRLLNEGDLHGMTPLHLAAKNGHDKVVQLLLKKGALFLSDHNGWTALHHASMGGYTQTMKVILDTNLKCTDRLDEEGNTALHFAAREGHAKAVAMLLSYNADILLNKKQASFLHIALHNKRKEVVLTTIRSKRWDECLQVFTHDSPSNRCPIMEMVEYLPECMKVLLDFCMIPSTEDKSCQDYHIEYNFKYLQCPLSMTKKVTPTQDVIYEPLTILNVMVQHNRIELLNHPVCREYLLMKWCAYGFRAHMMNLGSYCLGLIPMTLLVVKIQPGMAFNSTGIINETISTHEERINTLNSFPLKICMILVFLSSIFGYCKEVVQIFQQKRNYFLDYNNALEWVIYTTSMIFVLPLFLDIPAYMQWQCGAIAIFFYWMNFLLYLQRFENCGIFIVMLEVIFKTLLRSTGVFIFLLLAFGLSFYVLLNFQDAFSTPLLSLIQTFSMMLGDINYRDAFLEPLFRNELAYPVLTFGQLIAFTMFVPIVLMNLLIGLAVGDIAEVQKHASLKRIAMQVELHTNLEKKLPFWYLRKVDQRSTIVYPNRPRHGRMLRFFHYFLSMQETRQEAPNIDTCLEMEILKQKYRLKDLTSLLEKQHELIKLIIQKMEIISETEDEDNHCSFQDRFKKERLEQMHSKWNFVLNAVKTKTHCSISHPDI
Test: Agonist activity at full length rat TRPA1 transfected in HEK293F cells assessed as increase in Ca2+ influx by FLIPR calcium assay
pEC50: −log10 of the molar value.
MEASURED_QUANTITY: pEC50

COMPOUND | MEASURED_QUANTITY | EXPERIMENTAL_RESULT
CC(C)=CCC/C(C)=C/CC/C(C)=C/CSc1ccccc1C(=O)O [SALIRASIB] | pEC50 | 3.99
CC1CCC(C(C)C)C(O)C1 (configuration not stated) [MENTHOL] | pEC50 | 5.15
Cn1c(=O)c2c(ncn2C)n(C)c1=O [CAFFEINE] | pEC50 | 4.02
CCCCC/C=C/C=C1/C(=O)C=C[C@@H]1C/C=C\CCCC(=O)O | pEC50 | 4.70
NC(=O)c1cccc(-c2cccc(OC(=O)NC3CCCCC3)c2)c1 [URB-597] | pEC50 | 3.89
CCCCCC(O)/C=C/C=O (configuration not stated) [4-HYDROXYNON-2-ENAL] | pEC50 | 5.22
O=C/C=C/c1ccccc1 | pEC50 | 5.27
